Entries and their AUC values follow.
- ASSAY TEXT: AUC in CD1 mouse assessed as pibrentasvir1 level at 6 mg/kg, po measured up to 24 hrs
- Assay type: ADME, organism-based
- Set-up: route oral, dose 6 mg/kg, time <=24
- TEST PARAMETERS: in vivo

- SUBSTANCE SMILES: "COC(=O)N[C@H](C(=O)N1CCC[C@H]1c1nc2cc(F)c([C@H]3CC[C@H](c4cc5nc([C@@H]6CCCN6C(=O)[C@@H](NC(=O)OC)[C@@H](C)OC)n(COC(=O)Cc6ccccc6OP(=O)(O)O)c5cc4F)N3c3cc(F)c(N4CCC(c5ccc(F)cc5)CC4)c(F)c3)cc2[nH]1)[C@@H](C)OC"
  AUC: "9560 ng·h/mL"
- SUBSTANCE SMILES: "COC(=O)N[C@H](C(=O)N1CCC[C@H]1c1nc2cc(F)c([C@H]3CC[C@H](c4cc5nc([C@@H]6CCCN6C(=O)[C@@H](NC(=O)OC)[C@@H](C)OC)n(COC(=O)[C@@H](NC(=O)/C=C/C(=O)O)C(C)C)c5cc4F)N3c3cc(F)c(N4CCC(c5ccc(F)cc5)CC4)c(F)c3)cc2[nH]1)[C@@H](C)OC"
  AUC: "231 ng·h/mL"
- SUBSTANCE SMILES: "COC(=O)N[C@H](C(=O)N1CCC[C@H]1c1nc2cc(F)c([C@H]3CC[C@H](c4cc5nc([C@@H]6CCCN6C(=O)[C@@H](NC(=O)OC)[C@@H](C)OC)n(COC(=O)CCCOP(=O)(O)O)c5cc4F)N3c3cc(F)c(N4CCC(c5ccc(F)cc5)CC4)c(F)c3)cc2[nH]1)[C@@H](C)OC"
  AUC: "5570 ng·h/mL"
- SUBSTANCE SMILES: "COC(=O)N[C@H](C(=O)N1CCC[C@H]1c1nc2cc(F)c([C@H]3CC[C@H](c4cc5c(cc4F)nc([C@@H]4CCCN4C(=O)[C@@H](NC(=O)OC)[C@@H](C)OC)n5COC(=O)c4ccccc4COP(=O)(O)O)N3c3cc(F)c(N4CCC(c5ccc(F)cc5)CC4)c(F)c3)cc2[nH]1)[C@@H](C)OC"
  AUC: "2420 ng·h/mL"
